systemName: MgcRacGAP(345-618) GAP domain (Homo sapiens)
testReadout: IC50 (µM)
Please state the figure in µM; there is no need to write the unit.

Task: Need IC50 of Cl.Cl.c1cc2cc(C3=NCCN3)ccc2cc1C1=NCCN1 , thanks.
Output: 15
